Each record here notes measured activity, negative = inhibition.
Molecular target: Cytochrome P450 2C19 (Homo sapiens) (UniProt P33261)
Sequence (P33261 whole entry, looked up): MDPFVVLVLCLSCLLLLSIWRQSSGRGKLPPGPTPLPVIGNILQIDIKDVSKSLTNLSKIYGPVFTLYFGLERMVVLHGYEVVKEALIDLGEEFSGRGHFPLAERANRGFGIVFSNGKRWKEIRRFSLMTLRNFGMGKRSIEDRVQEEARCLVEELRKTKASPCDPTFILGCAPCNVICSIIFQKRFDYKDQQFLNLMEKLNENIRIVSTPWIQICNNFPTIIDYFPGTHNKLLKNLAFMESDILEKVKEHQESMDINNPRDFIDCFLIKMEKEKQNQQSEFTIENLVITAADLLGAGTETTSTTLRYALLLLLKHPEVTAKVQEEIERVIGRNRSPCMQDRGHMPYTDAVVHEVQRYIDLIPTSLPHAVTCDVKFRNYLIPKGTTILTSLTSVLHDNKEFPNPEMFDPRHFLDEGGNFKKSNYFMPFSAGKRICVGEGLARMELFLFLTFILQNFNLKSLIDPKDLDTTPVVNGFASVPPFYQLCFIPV
Experiment: Cytochrome panel assay with activity outcomes; note: % is set by controls: 0 for no effect and ±100 for the full control effect
Conditions: recombinant CYP, pro-luciferin dealkylation, luminescence, p450-cyp2c19; series mostly up to 57.1 µM
Among all 16,000 compounds or so, about 5,800 (36%) were called active. Not shown: some 23% with an inconclusive outcome. Some of the results follow.

Sample records with activity, negative = inhibition:
INSERT INTO measurements (molecule, endpoint_value) VALUES
  ('[N-]=[N+]=NCC(=O)c1c[nH]c(=O)[nH]c1=O', '30.9% [at 11.4 µM] (inactive)'),
  ('O=C(C[n+]1ccc2ccccc2c1)c1ccc2ccc3ccccc3c2c1', '1.57% [at 11.4 µM] (inactive)'),
  ('C[C@@H]1[C@@H](C)N1C[C@H](O)Cn1ccnc1[N+](=O)[O-] (stereo partly specified)', '3.22% [at 11.4 µM] (inactive)'),
  ('c1cc(CCN2CCCCC2)ccn1', '9.84% [at 11.4 µM] (inactive)'),
  ('c1ccc2c([C@@H]3CCN(CCN4CCOCC4)C3)c[nH]c2c1', '23.2% [at 11.4 µM] (inactive)');

Lookup: Which activity, negative = inhibition reading was recorded for the molecule `O=c1[nH]cnc2[nH]cc(CN3CCCCC3)c12` ?
Found: 39.9% [at 11.4 µM] (inactive)
